Hello, the source for this data is patent US11299472B2, in case you need it.

# assay: Rat pharmacokinetic study, single oral HM04 fumarate salt 3, 10, 30 mg/kg (Example 10)
# Type: in vivo, male Sprague Dawley rats
# reported.conditions: male, Sprague Dawley, plasma, 3 mg/kg oral, 0.50 hours, n=4
readout.label: concentration at 0.5 h
Don't forget the unit after the number, please.

// concentration at 0.5 h lookup, key: CN1CCC(N(C)C(=O)N[C@H](c2ccc(-c3cnccn3)c(Cl)c2Cl)C(F)(F)F)CC1.O=C(O)/C=C/C(=O)O [HM04 fumarate salt]
64.2 ng/mL

---

# assay: Dog pharmacokinetic study, single oral HM04 fumarate salt 3, 10, 30 mg/kg (Example 10)
# Format: in vivo, male Beagle dogs
# reported.conditions: male, Beagle, plasma, 3 mg/kg oral, 0.50 hours, n=4
readout.label: concentration at 0.5 h (ng/mL)
Numbers only here, please. The scale is ng/mL.

# concentration at 0.5 h lookup, item CN1CCC(N(C)C(=O)N[C@H](c2ccc(-c3cnccn3)c(Cl)c2Cl)C(F)(F)F)CC1.O=C(O)/C=C/C(=O)O [HM04 fumarate salt]
360

---

# assay: Dog pharmacokinetic study, single oral HM04 fumarate salt 3, 10, 30 mg/kg (Example 10)
# Type: in vivo, male Beagle dogs
# reported.conditions: male, Beagle, plasma, po, 10 mg/kg, Dog 4, 10 mg/kg oral, read-out: individual oral AUC∞
readout.label: AUC(0-inf) (ng·h/mL)
The reply should be a number in ng·h/mL, with the unit left off.

# AUC(0-inf) lookup, item CN1CCC(N(C)C(=O)N[C@H](c2ccc(-c3cnccn3)c(Cl)c2Cl)C(F)(F)F)CC1.O=C(O)/C=C/C(=O)O [HM04 fumarate salt]
10900

---

# assay: Rat pharmacokinetic study, single oral HM04 fumarate salt 3, 10, 30 mg/kg (Example 10)
# Type: in vivo, male Sprague Dawley rats
# reported.conditions: male, Sprague Dawley, plasma, 10 mg/kg oral, n=4
readout.label: Tmax (h)
A number alone suffices; assume h.

Item under review: CN1CCC(N(C)C(=O)N[C@H](c2ccc(-c3cnccn3)c(Cl)c2Cl)C(F)(F)F)CC1.O=C(O)/C=C/C(=O)O [HM04 fumarate salt] . Reported Tmax?
1.38

---

# assay: Rat pharmacokinetic study, single oral HM04 fumarate salt 3, 10, 30 mg/kg (Example 10)
# Type: in vivo, male Sprague Dawley rats
# reported.conditions: male, Sprague Dawley, plasma, 30 mg/kg oral, 0.50 hours, n=4
readout.label: concentration at 0.5 h (ng/mL)
Number only, in ng/mL; omit the unit.

Tell me the measured concentration at 0.5 h of CN1CCC(N(C)C(=O)N[C@H](c2ccc(-c3cnccn3)c(Cl)c2Cl)C(F)(F)F)CC1.O=C(O)/C=C/C(=O)O [HM04 fumarate salt] , please.
1400

---

# assay: Rat pharmacokinetic study, single oral HM04 fumarate salt 3, 10, 30 mg/kg (Example 10)
# Format: in vivo, male Sprague Dawley rats
# reported.conditions: male, Sprague Dawley, plasma, 30 mg/kg oral, n=4
readout.label: Cmax (ng/mL)
Numeric only. Scale: ng/mL

Which measured Cmax value corresponds to CN1CCC(N(C)C(=O)N[C@H](c2ccc(-c3cnccn3)c(Cl)c2Cl)C(F)(F)F)CC1.O=C(O)/C=C/C(=O)O [HM04 fumarate salt] ?
2590

---

# assay: Dog pharmacokinetic study, single oral HM04 fumarate salt 3, 10, 30 mg/kg (Example 10)
# Type: in vivo, male Beagle dogs
# reported.conditions: male, Beagle, plasma, 30 mg/kg oral, 0.25 hours, n=4
readout.label: concentration at 0.25 h (ng/mL)
State the answer as a number, implicitly in ng/mL.

State the recorded concentration at 0.25 h for this entry: CN1CCC(N(C)C(=O)N[C@H](c2ccc(-c3cnccn3)c(Cl)c2Cl)C(F)(F)F)CC1.O=C(O)/C=C/C(=O)O [HM04 fumarate salt]
1940
